Target: T1, cyno TREM-1 (cynomolgus monkey, UniProt A0A2K5VHG8 21-233)
T1 sequence: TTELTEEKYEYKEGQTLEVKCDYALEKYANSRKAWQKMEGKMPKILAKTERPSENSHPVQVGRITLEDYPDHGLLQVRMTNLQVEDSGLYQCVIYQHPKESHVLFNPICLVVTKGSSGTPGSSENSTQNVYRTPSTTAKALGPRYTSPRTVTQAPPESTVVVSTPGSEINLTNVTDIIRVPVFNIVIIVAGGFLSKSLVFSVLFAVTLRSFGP
Assay: cell-based or functional assay
Recorded measurements of Ab IC50-Cyno PBMC (Trial 1), TNFα release induced by cyno PGLYRP1/PGN, one per entry
Entry rule: numbers only, all in nM.

Please review the entries below; each comes with its answer.
46H7 (antibody, V domains shown) VH: EVQLLESGGGMVQPGGSLRLSCAVSGFTFSRYAMSWVRQAPGKGLEWVSEMRGSSGSTYYADSVKGRFTISRDNSKNTLYLQMNSLRVEDTAIYYCAKEFSSNSLFDYWGQGTLVTVSS VL: EIVMTQSPATLSVSPGERATLSCRASQSVNSNLAWYQQKPGRAPRLLIYGASTRATGIPARFSGSGSGTEFTLTISSLQSEDFAVYYCQQFYNWPPWTFGQGTKVEIK: 0.0951
30H2 (antibody, V domains shown, also called 19330) VH: EVQVLESGGGLVQPGESLRLSCTASGFTFNAYAMSWVRQAPGKGLEWVSTISGSGSTTYYADSVKGRFTISRDNSKNTLDLQMNSLRAADTAVYYCAKVAGSNFFFDHWGQGTLVTVSS VL: EIVMTQSPATLSVSPGERATLSCRASQSINSNLAWYQQKPGQAPRLLIYGAYTRATGIPDRFSGSGSGTEFTLTISSLQSEDFAVYYCQEFIMWPPWTFGLGTQVEIK: 3.77

Which value of Ab IC50-Cyno PBMC (Trial 1), TNFα release induced by cyno PGLYRP1/PGN has been reported for 63F8 (antibody, V domains shown) VH: QVQLVQSGAEVKKPGASVKVSCKASGYTFTSYDINWVRQATGQGLEWMGRMNPKSGNAGYVQNFRGRVTMTRNTSISTAYMELSSLRSEDTAVYYCARGGRTSIWSFVFDYWGQGTLVTVSS VL: DIQMTQSPSSLSASVGDRVTITCQASQDISKHLNWYQQKPGKAPKLLIYDTSNLETGVPSRFSGSGSGTDFTFTISSLQPEDIATYNCQQYDKLPLTFGGGTKVEIK in the records?
0.0226
